Every entry's value here was drawn from patent US9187472B2.

# TARGET OR TEST SYSTEM: NAMPT (human, recombinant, C-terminally His-tagged) (Homo sapiens)
# Sequence (P43490 whole entry): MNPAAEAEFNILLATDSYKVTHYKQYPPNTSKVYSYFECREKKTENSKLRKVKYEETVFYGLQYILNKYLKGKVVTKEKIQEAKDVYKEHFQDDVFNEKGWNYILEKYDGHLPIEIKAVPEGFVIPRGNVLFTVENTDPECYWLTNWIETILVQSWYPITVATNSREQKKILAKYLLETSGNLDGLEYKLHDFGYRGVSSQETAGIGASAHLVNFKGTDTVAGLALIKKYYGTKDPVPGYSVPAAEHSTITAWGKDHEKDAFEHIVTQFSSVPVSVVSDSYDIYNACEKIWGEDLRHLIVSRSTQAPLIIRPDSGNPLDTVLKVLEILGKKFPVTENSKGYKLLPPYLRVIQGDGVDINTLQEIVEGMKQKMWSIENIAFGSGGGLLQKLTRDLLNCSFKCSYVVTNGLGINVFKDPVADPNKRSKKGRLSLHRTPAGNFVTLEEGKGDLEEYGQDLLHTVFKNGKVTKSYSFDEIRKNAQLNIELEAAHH
# PROTOCOL SUMMARY: Time-Resolved Fluorescence Resonance Energy Transfer (TR-FRET) Binding Assay of NAMPT
# SETTINGS: without substrates; 6.8 nM NAMPT, 200 nM probe, 3 hours equilibration
pIC50: −log10 of the molar value.

[
  {
    "COMPOUND": "CCOCC(=O)N1CC=C(c2ccc(NC(=O)Nc3ccc4nccn4c3)cc2)CC1",
    "RESULT COMPARATOR": "=",
    "pIC50": 6.13
  },
  {
    "COMPOUND": "CC(C)CC(=O)Nc1ncc(C(=O)NCc2ccc3nccn3c2)s1",
    "RESULT COMPARATOR": "=",
    "pIC50": 6.50
  },
  {
    "COMPOUND": "CC(C)(C)CC(=O)N1CCC(c2ccc(C(=O)NCc3ccn4ccnc4c3)s2)C1 (centres unmarked)",
    "RESULT COMPARATOR": "=",
    "pIC50": 7.09
  },
  {
    "COMPOUND": "CC1(C(=O)N2CCC(c3ccc(C(=O)NCc4ccn5ccnc5c4)cc3)C2)CCCCC1 (centres unmarked)",
    "RESULT COMPARATOR": "=",
    "pIC50": 6.67
  },
  {
    "COMPOUND": "CC1(Cn2cc(-c3ccc(C(=O)NCc4ccn5ccnc5c4)s3)cn2)CCN(C(=O)OC(C)(C)C)CC1",
    "RESULT COMPARATOR": "=",
    "pIC50": 7.89
  },
  {
    "COMPOUND": "CC(C)CC(=O)NC1(c2ccc(C(=O)NCc3ccn4ccnc4c3)s2)CCC1",
    "RESULT COMPARATOR": "<",
    "pIC50": 5.00
  },
  {
    "COMPOUND": "CC[C@H](C)C(=O)N1CCC(c2ccc(NC(=O)NCc3ccn4ccnc4c3)cc2)CC1",
    "RESULT COMPARATOR": "=",
    "pIC50": 7.31
  },
  {
    "COMPOUND": "O=C(Nc1ccc(C2=CCN(C(=O)C3CCOCC3)CC2)cc1)Nc1ccc2nccn2c1",
    "RESULT COMPARATOR": "=",
    "pIC50": 6.68
  }
]
